For each entry below, report its GI50 value.
# Test system: KM12 colon
# test.name: NCI tumour cell line growth inhibition, 48 h

According to the records, this compound COc1ccc2[nH]c(O)c(/C=c3/cc4c(c(-c5cc(OC)c(OC)c(OC)c5)n3)=Nc3ccccc3-4)c2c1 displays GI50 of 5.04 µM

// field: GI50; key: CCc1c(Oc2ccc(C(C)=O)cc2)c2ccccc2[nH]c1=O ; value = 18.6 µM

Memo: O=C1OCc2c1cc1ccc(O)c(OC3OC(CO)C(O)C(O)C3O)c1c2-c1ccc2c(c1)OCO2 (centres undefined) , reported GI50: 23.4 µM

Query CCOC(=O)/C=C(/C(=O)OCC)n1cc(Cl)c(=O)n(CC(=O)OCC)c1=O yields GI50 of 21.2 µM
